Species: Mus musculus
protocol-summary: Antitumor activity against L1210 leukemia cells in mice (activity expressed as average survival time of treated/control animals x 100)
Format: functional
Label Yes when T/C is strictly below 200%; otherwise label No.

Below, 5 molecules whose answers are already recorded.
Criterion: T/C strictly below 200%. Is it met by COc1ccc(S(=O)(=O)NN(C)S(C)(=O)=O)cc1 ?
No

Criterion: T/C strictly below 200%. Is it met by CCS(=O)(=O)NN(C)S(=O)(=O)c1ccc(OC)cc1 ?
Yes

Criterion: T/C strictly below 200%. Is it met by CN(NS(=O)(=O)c1ccccc1)S(=O)(=O)c1ccc(Cl)cc1 ?
Yes

Criterion: T/C strictly below 200%. Is it met by COc1ccc(S(=O)(=O)N(CCCl)NS(=O)(=O)c2ccccc2)cc1 ?
Yes

Criterion: T/C strictly below 200%. Is it met by Cc1ccc(S(=O)(=O)NN(C)S(=O)(=O)c2ccc3ccccc3c2)cc1 ?
Yes

Others:
Criterion: T/C strictly below 200%. Is it met by Cc1ccc(S(=O)(=O)NN(C)S(=O)(=O)Cc2ccccc2)cc1 ?
Yes

Criterion: T/C strictly below 200%. Is it met by CCS(=O)(=O)NN(C)S(=O)(=O)c1ccc(C)cc1 ?
Yes

Criterion: T/C strictly below 200%. Is it met by CN(NS(=O)(=O)c1ccc2ccccc2c1)S(=O)(=O)c1ccc(Br)cc1 ?
Yes

Criterion: T/C strictly below 200%. Is it met by CN(NS(=O)(=O)c1ccc(Br)cc1)S(C)(=O)=O ?
Yes

Criterion: T/C strictly below 200%. Is it met by COc1ccc(S(=O)(=O)NN(C)S(=O)(=O)c2ccc(Cl)cc2)cc1 ?
Yes

Criterion: T/C strictly below 200%. Is it met by CN(NS(C)(=O)=O)S(C)(=O)=O ?
No

Criterion: T/C strictly below 200%. Is it met by CN(NS(=O)(=O)c1ccc(Cl)cc1)S(C)(=O)=O ?
No

Criterion: T/C strictly below 200%. Is it met by CN(NS(C)(=O)=O)S(=O)(=O)Cc1ccccc1 ?
Yes

Criterion: T/C strictly below 200%. Is it met by Cc1ccc(S(=O)(=O)NN(C)S(C)(=O)=O)cc1 ?
Yes

Criterion: T/C strictly below 200%. Is it met by COc1ccc(S(=O)(=O)N(C)NS(=O)(=O)c2ccccc2)cc1 ?
Yes

Criterion: T/C strictly below 200%. Is it met by COc1ccc(S(=O)(=O)N(C)NS(=O)(=O)Cc2ccccc2)cc1 ?
Yes
